- System: Clostridium perfringens ATCC13124 (产气荚膜梭状芽孢杆菌ATCC13124)
- Format: cell-based
- Condition context: component A (XP or YS) alone

| Compound | Assayed target | MIC_A (ng/mL) |
| --- | --- | --- |
| CCOC(=O)C1=C[C@@H](OC(CC)CC)[C@H](NC(C)=O)[C@@H](NC(CC(=O)O)C(=O)O)C1 (mixture of isomers) [化合物1P] | Clostridium perfringens ATCC13124 (产气荚膜梭状芽孢杆菌ATCC13124) | 12 |
| CCOC(=O)C1=C[C@@H](OC(CC)CC)[C@H](NC(CC(=O)O)C(=O)O)[C@@H](N=[N+]=[N-])C1 (mixture of isomers) [化合物21P] | Clostridium perfringens ATCC13124 (产气荚膜梭状芽孢杆菌ATCC13124) | 56 |
| CCOC(=O)C1=C[C@@H](OC(CC)CC)[C@H](NC(C)=O)[C@@H](NC(CC(=O)O)C(=O)O)C1 (mixture of isomers) [化合物4P] | Clostridium perfringens ATCC13124 (产气荚膜梭状芽孢杆菌ATCC13124) | 36 |

Data origin: patent CN111517978A
